# Test system: RPMI-8226 leukemia
# method: NCI-60 one-dose screen, 48 h
# condition.description: 10 µM unless noted
Compounds without any hit were thinned out: in the full panel of roughly 83,000, 20% have a hit. Calls of active or inactive are those of the source. How the source made its calls: active means growth percent below 10; inactive means the rest.
Just give me one of these, please: yes (1) = active, no (0) = inactive

**Query** Lab log entry: N#Cc1c(-c2ccc(Cl)cc2)nc2c(-c3ccccc3)c(Nc3ccccc3)nn2c1N — outcome as called in the assay?
**Result** no (0)

**Query** Outcome? Nc1nc(N)c2c(n1)NC(c1ccc(C(F)(F)F)cc1)CC(c1ccc(Nc3nc(NCCO)nc(Nc4ccc(Cl)cc4)n3)cc1)=N2 (centres undefined)
**Result** yes (1)

**Query** Lab log entry: Cc1ccc(C(=O)Nc2cccc(C(F)(F)F)c2)cc1Nc1nc(-c2cnccn2)nc2c1cnn2C — outcome as called in the assay?
**Result** no (0)

**Query** State the result this test recorded for CCN(CC)c1ccc(C=O)c(OCc2cn(CC(=O)Nc3ccc(Cl)cc3)nn2)c1 .
**Result** no (0)

**Query** Tell me the assay call for O=C1c2c(c3c4cc(Br)ccc4[nH]c3c3ccc4ccccc4c23)C(=O)N1CCO please.
**Result** no (0)

**Query** Please share the test call associated with Cc1nc2cnc(N)c(C#Cc3cncc(C(=O)Nc4ccc(Cl)c(C(F)(F)F)c4)c3)c2nc1C .
**Result** yes (1)

**Query** What did this assay record as the result for NS(=O)(=O)c1ccc(Nc2nc(Nc3ccccc3)nc(-n3nc(-c4ccccc4)cc3-c3ccccc3)n2)cc1 ?
**Result** yes (1)

**Query** Hi, sorry to bother you, what did the test record for C/C(=C(/c1ccc(Cl)cc1)c1ccc(OCCN)cc1)c1ccc(C)cc1 ?
**Result** no (0)

**Query** Recorded test call requested for COc1ccc(/C=C2\SC(=Nc3cc(C)on3)NC2=O)cc1
**Result** no (0)

----------
# Tested on: SF-295 CNS
# method: NCI-60 one-dose screen, 48 h
# condition.description: 10 µM unless noted
Compounds without any hit were thinned out: in the full panel of roughly 83,000, 20% have a hit. Calls of active or inactive are those of the source. How the source made its calls: active means growth percent below 10; inactive means the rest.
Just give me one of these, please: active, inactive

**Query** Tell me the assay call for CN(C)S(=O)(=O)c1oc(-c2ccccc2)nc1C#N please.
**Result** inactive

**Query** Could you kindly confirm the outcome this assay logged for O=C(CCCN1C(=O)/C(=C/c2ccccc2F)SC1=S)N1CCOCC1 ?
**Result** inactive

**Query** Hi team, can someone confirm the assay call for CS(=O)(=O)c1ccc(-c2nc3ccccn3c2C=Nc2ccc(Cl)cc2)cc1 ?
**Result** inactive

**Query** Which outcome was assigned to Cc1sc2c(c1C)c(=O)nc1c(-c3nc(-c4ccc(F)cc4)no3)n[nH]n12 in this test?
**Result** inactive

**Query** Outcome logged for Cc1ccc(-c2nc(C(Cl)Cl)nc3cc(-c4ccccc4)nn23)cc1 in this assay:
**Result** inactive

**Query** For this molecule, state the assay outcome: COc1ccc(C(=O)c2cc(C(=O)/C=C/c3c(Cl)cccc3Cl)c3cc(C)ccn23)cc1
**Result** inactive

**Query** State the result this test recorded for c1ccc2c(NCCCn3ccnc3)c3oc4ccccc4c3nc2c1 .
**Result** active

**Query** Recorded call for C/C(=N/NC(N)=S)c1ccc(Nc2nc(SCC(C)C)nc(-c3ccc(F)cc3)c2C#N)cc1 ?
**Result** active

**Query** Tell me the assay call for O=C1/C(=C/C2=Cc3ccccc3OC2)SC(=S)N1c1ccc(F)cc1 please.
**Result** inactive

**Query** State the result this test recorded for CCCC(=O)NC(c1ccc(N(CC)CC)cc1)c1cc(C)c2cccnc2c1O (stereo not given) .
**Result** inactive

**Query** # fetch the recorded call for CCN1CCN(/C(=N\c2sc(-c3ccccc3)nc2-c2ccccc2)c2ccccc2)CC1 here
**Result** inactive

**Query** Tell me the assay call for CN(C)c1ccc(-c2c(NC(C)(C)C)nc3c(OCCc4ccccc4)cccn23)cc1 please.
**Result** active

**Query** Record request — test call for O=c1[nH]c2ccccc2cc1CSc1ccccc1Nc1nccc(-c2ccc(C(F)(F)F)cc2)n1
**Result** inactive

**Query** Hi, sorry to bother you, what did the test record for CCCSc1nc(Nc2ccc(/C(C)=N\NC(N)=S)cc2)c(C#N)c(-c2ccc(OC)cc2)n1 ?
**Result** inactive

**Query** Query: recorded result category for O=C1[C@H]2Cc3c([nH]c4ccccc34)[C@@H](c3ccc(Br)cc3)N2C(=O)CN1C1CCN(Cc2ccccc2)CC1 in this test
**Result** inactive

**Query** Just curious, what result did COc1ccc(/C=N/NC(=O)c2[nH]c3ccc(Br)cc3c2-c2ccccc2)o1 get here?
**Result** inactive

**Query** I would be grateful if you could indicate the recorded call for O=C(CCN1C(=O)/C(=C/c2ccccc2F)SC1=S)N1CCOCC1 .
**Result** inactive

**Query** Call for entry Cc1nc(-c2cc3ccccc3oc2=O)ccc1C(=O)/C=C/c1ccc(Cl)c(Cl)c1 :
**Result** inactive

**Query** Just curious, what result did Nc1cc(-c2c[nH]c3ccc(F)cc23)nc2cc(-c3c[nH]c4ccc(F)cc34)nn12 get here?
**Result** inactive

**Query** Assay result, entry O=C(N/N=C/c1cccs1)c1[nH]c2ccc(Br)cc2c1-c1ccccc1 — outcome?
**Result** inactive

**Query** Test call for this molecule, please: CCOC(=O)c1sc(N)c(C(=O)OCC)c1C
**Result** inactive

**Query** How was CN1CCN(Cc2ccc(NC(=O)c3cncc(C#Cc4cnc5ccc(N6CCSCC6)nn45)c3)cc2C(F)(F)F)CC1 classified in this test?
**Result** active

**Query** Record lookup: outcome of this test for O=C1Nc2ccc(Cl)cc2/C1=C/c1ccc(OCC(=O)c2ccc(Br)cc2)cc1 ?
**Result** inactive

**Query** Given COc1cc(-c2nc3ccc(-c4nnc(SCC(=O)Nc5ccc(C(C)=O)cc5)o4)cc3[nH]2)cc(OC)c1OC , state the outcome it received in this test.
**Result** inactive

**Query** Outcome logged for COc1cc(/C=C/C(=O)c2ccccc2)ccc1Oc1nc(NCCO)nc(N2CCOCC2)n1 in this assay:
**Result** inactive

**Query** Each molecule tested received a call. Report the one for COc1cc(/C=C/C(=O)c2cc(OC)c(OC)c(OC)c2)ccc1OCc1ccc(F)cc1 .
**Result** inactive

**Query** Hello, I am checking results. What call was entered for O=C(c1ccc(O)cc1)C1[C@H](c2ccc(Cl)cc2)[C@@H](c2ccccc2)NC12C(=O)Nc1ccc(Cl)cc12 (stereo not given in full) ?
**Result** inactive

**Query** In this assay, the call recorded for COc1ccc(-n2c(SCC(=O)Nc3ccc(-c4nc5ccccc5[nH]4)cc3)nc3ccccc3c2=O)cc1 was what?
**Result** inactive

**Query** Short answer needed: outcome of this test for CC(=O)Oc1ccccc1C(=O)Nc1cc(C(C)C)ccc1C ?
**Result** inactive

**Query** Name the outcome recorded for CCCC(=O)NC(c1cccc(N(C)C)c1)c1cc(C)c2cccnc2c1O (stereo not given) in the assay.
**Result** inactive

**Query** Hello, I am checking results. What call was entered for Cc1cc2nc3c4cc(Cl)ccc4n(CC(=O)NCCN(C)C)c3nc2cc1C ?
**Result** inactive

**Query** What was the test verdict on COc1cc(/C=C/C(=O)c2ccc(C(F)(F)F)cc2)ccc1Oc1nc(NCCO)nc(N2CCOCC2)n1 ?
**Result** inactive

**Query** Name the outcome recorded for Nc1c(C(=O)c2ccc(Br)cc2)oc2nc(-c3cnccn3)cc(-c3cccs3)c12 in the assay.
**Result** inactive

**Query** Can you look up the reported call for CCOc1ccc2nc(NC(=O)c3ccc(C(F)(F)F)cc3)sc2c1 for me?
**Result** inactive

**Query** Record request — test call for O=C(CN1CCOCC1)NNc1ncnc2ccccc12
**Result** inactive

**Query** Would you mind telling me which call this test gave Cc1ccc(/C=C/c2nn3c(-c4ccco4)nnc3s2)cc1C ?
**Result** inactive

**Query** Which result was noted for this molecule in the test: OC1CCN(CCCOc2c3ccccc3nc3c2oc2ccc(Cl)cc23)CC1
**Result** active

**Query** Just curious, what result did Clc1ccc2oc3c(OCCCn4ccnc4)c4ccccc4nc3c2c1 get here?
**Result** inactive

**Query** Called result for O=C(N/N=C/c1ccco1)c1[nH]c2ccc(Br)cc2c1-c1ccccc1
**Result** inactive

**Query** Please share the test call associated with Cc1cccc2sc(/N=C(\N)C(Cl)(Cl)Cl)nc12 .
**Result** inactive
